B1: NELF-E aptamer (parent)
chain: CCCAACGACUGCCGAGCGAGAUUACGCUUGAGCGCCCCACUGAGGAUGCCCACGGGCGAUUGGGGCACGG

variants of: B1; experiment: HiTS-RAP; details: with NELF-E (Drosophila)
MEASURED_METRIC: pKd
In plain terms, pKd is the concentration in mol/L turned into minus its base-10 logarithm.

Ask: Which measured pKd value corresponds to CCCAACUACUGCCGAGCGAGAUCACGCUUGAGCGCCCCACUGAGGAUGCCCACGGGCGAUUGGGGCACGG [G7U U23C] ?
Reply: 8.39

Ask: Same lookup for CCCAACGGCUGCCGAGCGAGAUUACGCUUGUGCGCCCCACUGAGGAUGCCCACGGGCGAUUGGGGCACGG [A8G A31U] , please.
Reply: 8.25

Ask: And what about the variant CCCAACGACUUCCGAGCGAGAUUACGCUAGAGCGCCCCACUGAGGAUGCCCACGGGCGAUUGGGGCACGG [G11U U29A] ?
Reply: 8.25

Ask: // query: CCCAACUACUGCCGAGCGAGAUUACGCUUGAGGGCCCCACUGAGGAUGCCCACGGGCGAUUGGGGCACGG [G7U C33G]
Reply: 8.26

Ask: // next record CCCAACUACUGCCGAGCGAGUUUACGCUUGAGCGCCCCACUGAGGAUGCCCACGGGCGAUUGGGGCACGG [G7U A21U]
Reply: 8.24

Ask: CCCAACGACUGCCGAGCGAGAUUGCGCUUGAGCGCCCCACUGAGGAUGCCCACAGGCGAUUGGGGCACGG [A24G G54A] ?
Reply: 7.92

Ask: Input CCCAACGACUGCCGAGCGAGGUUACGCUUGAGCGCCCCACUGAGGAUGCCCACGGGCGUUUGGGGCACGG [A21G A59U]
Reply: 7.14

Ask: Repeat for the following variant: CCCAACUACUGCCGAGCGAGAUUACGCUUGAGCACCCCACUGAGGAUGCCCACGGGCGAUUGGGGCACGG [G7U G34A]
Reply: 8.10

Ask: Continue with CCCAACGUCUGCCGAGCGAGAUUACGCUUGAGCGCCCCACUGAGGAUGCCCGCGGGCGAUUGGGGCACGG [A8U A52G]
Reply: 8.25

Ask: For CCCAACGACUGCCGAGGGAGAUUACGCUUGAGCGCUCCACUGAGGAUGCCCACGGGCGAUUGGGGCACGG [C17G C36U] then?
Reply: 8.04

Ask: How about this variant: CCCAACGACUGCCGAGCGAGAUUACGCUUGAGCGCCCCACGGAGGAUGCCCACGGGCGAUUGGGGCUCGG [U41G A67U]
Reply: 8.15

Ask: Then what about the variant CCCAACUACUGCCGAGCGAGAUUACGCUUGAGCGCCCCACUGAGGAUGCCCACGGGCGAUUGUGGCACGG [G7U G63U] ?
Reply: 7.80

Ask: Try this variant next: CCCAACGACUGCGGAGCGAGAUUACGCUUGAGCGCCCCACUGAGUAUGCCCACGGGCGAUUGGGGCACGG [C13G G45U]
Reply: 8.17

Ask: Next up: CCCACCGACGGCCGAGCGAGAUUACGCUUGAGCGCCCCACUGAGGAUGCCCACGGGCGAUUGGGGCACGG [A5C U10G]
Reply: 8.18

Ask: Same question for CCCAACUACUGCCGAGCGAGAUUACGCUUGAGCGACCCACUGAGGAUGCCCACGGGCGAUUGGGGCACGG [G7U C35A] please.
Reply: 8.06

Ask: Likewise for CCCAACGGCUGCCGAGGGAGAUUACGCUUGAGCGCCCCACUGAGGAUGCCCACGGGCGAUUGGGGCACGG [A8G C17G] ?
Reply: 8.26

Ask: Could you do the same for CCCAACGACUGCCGAGCGAGAUUACGCUUGAGCGCCCCACGGAGGAUGCCCACAGGCGAUUGGGGCACGG [U41G G54A] , please?
Reply: 7.74

Ask: What do you have for CCCAGCGACUGCCGAGCGAGAUUACGCUUGAGCGCCCCACUGAGGAUGCCCACGAGCGAUUGGGGCACGG [A5G G55A] ?
Reply: 7.95

Ask: Same again, this time with CCCAACGACUGCCGAGCGAGAUUACGCUUGAGCGCCCCGCUGAGGAUGCCCACGGGCGAUCGGGGCACGG [A39G U61C]
Reply: 8.05

Ask: Would you kindly repeat that for CCCAACGGCUGCCGAGCGAGAUUACGCUCGAGCGCCCCACUGAGGAUGCCCACGGGCGAUUGGGGCACGG [A8G U29C] ?
Reply: 8.24

Ask: Next record, please: CCCUACGACUGCCGAGCGAGAUUACGCUUGAGCGCCCCACUGAGGAUGCCCACGGACGAUUGGGGCACGG [A4U G56A]
Reply: 7.97

Ask: // query: CCCAACGACUUCCGAGCGAGAUUACGCUUGAGCGCCCCACUGAGGAUGCCCACGGGCGUUUGGGGCACGG [G11U A59U]
Reply: 7.31
